Origin of the recorded values: patent US6638953B2

measured.metric: melting point

The recorded melting point for "COc1cc2c(cc1C(F)(F)F)N(C(=O)Nc1cc(F)c(C)c(-c3cccnc3)c1)CC2" is 244 to 247 °C

The recorded melting point for "COc1cc2c(cc1C(F)(F)F)N(C(=O)Nc1cnc(-c3cccnc3)c(C)c1)CC2" is 230 to 232 °C

The recorded melting point for "O=C(Nc1cc(F)cc(-c2cncnc2)c1)N1CCc2cc(Cl)c(Cl)cc21" is 260 °C

The recorded melting point for "O=C(Nc1ccc(F)c(-c2cccnc2)c1)N1CCc2cc(Br)c(C(F)(F)F)cc21" is 200 to 201 °C

The recorded melting point for "COc1cc2c(cc1C(F)(F)F)N(C(=O)Nc1cncc(-c3c(F)cccc3F)c1)CC2" is 217 to 219 °C

The recorded melting point for "COc1cc2c(cc1C(F)(F)F)N(C(=O)Nc1cccc(-c3cncc4ccccc34)c1)CC2" is 211 to 215 °C

The recorded melting point for "COc1cc2c(cc1C(F)(F)F)N(C(=O)Nc1ccc(Oc3cccnc3)nc1)CC2" is 202 to 204 °C

The recorded melting point for "COc1cc2c(cc1C(F)(F)F)N(C(=O)Nc1cccc(-c3cccnc3)c1)CC2" is 192 to 193 °C
